The values you see were collected from a protein production outcome set (Wang et al. 2014).

- test-method-notes: label from the status in PepcDB records
measurement-type: protein production

# annotated cases, reported protein production shown
| residue-sequence | protein production |
| --- | --- |
| AIAAQKISEAHEHIAKAEKYLKTSFMKWKPDYDSAASEYAKAAVAFKNAKQLEQAKDAYLQEAEAHANNRSLFHAAKAFEQAGMMLKDLQRMPEAVQYIEKASVMYVENGTPDTAAMALDRAGKLMEPLDLSKAVHLYQQAAAVFENEERLRQAAELIGKASRLLVRQQKFDEAAASLQKEKSMYKEMENYPTCYKKCIAQVLVQLHRADYVAAQKCVRESYSIPGFSGSEDCAALEDLLQAYDEQDEEQLLRVCRSPLVTYMDNDYAKLAISLKVPGGGGGKKKPSASASAQPQEEEDDEYAGGLC | failed |
| MGVLTTFISQKALVGGYDNTIEPGVVILSGATITCNVSIGQGTFINKSTVISHDVRIGRYCEVSPGAKVLGRAIIGDRTEIGANAVILPDVIVGADCKIGAGAVVTRNIDSHTTVAGVPARSITKSSNNAFKLKSKIRNLLYHIRIADFRKLREYNHYVFGLEHHHHHH | failed |
| MKTIEIFDPAMCCPTGLCGTNINPELMRIAVVIETLKRQGVVVTRHNLRDEPQVYVSNKTVNQYLQKNGAEALPITLVDGEIAVSKDYPTTKQMSEWTGINLD | not failed |
| MLKNIFKISNIPAVLWGDKSEKIFIAVHGNMSNKEDAVIQIVAEEADRKGYQVLSFDLPEHGERKNDNTPCKVQFCVNELSIIMNYAKEHWKEINVFACSMGAYFSLLAFQNDVIEKALFLSPVVNMERIIENMMKWFNVTPELLQKEMTIETPIGQKLYWDYLCYVKEHPISTWNTDTYIMYGAKDELCEFETINYFTKKHRCELEVMETGEHYLHTEEQLKIFEQWLHKHID | failed |
| MRKYEIMYIIRPGVEEEAQKALVERFAGVLTNNGAEIINTKEWGKRRLAYEINDLREGFYMILNVNANAEAINEFDRLAKINEDILRHIVVKEEEK | not failed |

Prompt: Give the value of protein production reported for the following: MHATDQTFQILLSQLLEKVEDRCPECGSEQYVWQQKNKDGTERCAPTCWSCGYKMLKKHEQQANQQRSQESFMARTQKFFHQGSLIADDALRQCRLTNYQTTELETRQAKERALAAVSAIVEGKPIHVIFSGKPGVGKSHLAISILVEVLERSAYQKYCLFVSYSELLEKLKMSMNESAKSQAKAQAYITRMKKADVLVLDDLGAELGIKNKVSTDFNNDILNRILEARQNKATIFTTNFSGKQLVEAYGTRIISRLMKHANGYVFQYKDTTDKRMRSVKLEHHHHHH
Response: failed

Prompt: Tell me measured protein production for MKRIAFVGSVGAGKTTLFNALQGNYTLARKTLAVEFNDKGDIDTPGEYFSHPRWYHALITTLQDVDMLIYVHGANDPESRLPAGLLDIGVSKRQIAVISKTDMPDADVAATRKLLLETGFEEPIFELNSHDPQSVQQLVDYLASLTKQEEAGEKTHHSELEHHHHHH please.
Response: not failed

Prompt: Report measured protein production; entry is MGFIQWCLAHLNYWTIMFLMAIESSFIPFPSEIIVPPAAWMAATGQNGLNVFLVILFATIGAGIGAAVNYILSLLLGRPIVYAFANSKLGHLCLINEEKVRYAERYFDKNGAVSTLVGRLIPAVRQLISIPAGLARMKFLPFISYTMLGAGIWNCILAAIGYNLAKVPGIETQEQLLEKVNKYSHEIGFSIMGVVVVVLLIMFYKKKRRSARKGN
Response: failed

Prompt: Determine its reported protein production: MAKGTAVEFQPGGGQARDVFSIAAQAASPAADAGTSAAPAQAAPAPAAVASQAQHFGRTAEPAEPTDLWSYFWNGVTRNYFNFAGRARRKEYWGYCLFWTIALLVIVGIGVFADAEMGNFDSAEMPAMTVGLFGLFLLATFLPSLGMIVRRLHDLGLTGWLCLLILIPTFGSLIILVFALIPTQGRENQWGPVPAGVRV
Response: failed

Prompt: Look up and report measured protein production for this entry: MRMGVKDFAPSWFASVMGTGALALVSKSYSFKLPILEAFSKFLTYLNTIIFFVLLIPWLLRWIKYPSEAKKDLYHPVTSHFYGTMPIAMTIVAVNLAMFGYKEIALPLWILGSILVVIFAFLIPYLFFISEGVDVKTITPAWFIPPVGLIVIPLTSLPFVPSSVMWREVFIVLNYFGFGAGFFIYLALFAIVMRRFITHELLPPIMAPAVWINLGPLGAGAVALLNLAKIMPIAKSAFKAFAFILWGFGLWWLIMAILMTLHYLKNLHLPYSLAWWAFIFPLGAYVSATYNVGISIGITAMIEFGFALYWFLLALWLVTGIKTLVHDFSS
Response: failed

Prompt: Please give measured protein production of the following entry: MNNLQTKFPHIAIKLNEPLSKYTYTKTGGAADVFVMPKTIEEAQEVVAYCHQNKIPLTILGNGSNLIIKDGGIRGVILHLDLLQTIERNNTQIVAMSGAKLIDTAKFALNESLSGLEFACGIPGSIGGALHMNAGAYGGEISDVLEAATVLTQTGELKKLKRSELKAAYRFSTIAEKNYIVLDATFSLALEEKNLIQAKMDELTAAREAKQPLEYPSCGSVFKRPPGHFAGKLIQDSGLQGHIIGGAQVSLKHAGFIVNIGGATATDYMNLIAYVQQTVREKFDVELETEVKIIGEDK
Response: not failed

Prompt: Look up and state reported protein production for MFQALIDVVLPVFLVIGAGYCTTFAGYFKPEHIDGVMRFTQGFAIPCLLFRAIANLDLNAGFDPALLASFYMAAFLCFTAGLLGARLLFNRDWEDSVAIGFCCLFSNSVLLGLAITERAYGPENLVGNYAIIAIHSPFCYALGITTMEVIRNRGRGGRKMVTSVLNAMFRNVLILGIALGFIVNLSGISLPQIADDALSLIIRAALPGALFALGGVLVQYRPEGDTRVIVYICAISLLLHPGLVWLFGSALALPQDLFRSGVLNAAMAPGFNAYIFANIYGRAKRVAASSVLVATAASILTVWMWLMLLG
Response: failed
